// reported pIC50 per item
Target: UniProt:P43405
Assay: ELISA-based Syk kinase assay (phosphorylation of HS1 peptide substrate by isolated Syk kinase)
Details: IC50 of Syk kinase inhibition; 2 μM ATP, 2 μM peptide substrate
pIC50: −log10 of the molar value.
readout_kind: pIC50

> print(dat)
                          compound.structure  readout.kind           val
 1  COc1ccc(Nc2c(-c3ccc4cc[nH]c4c3)[nH]c3c(C#N)cnn23)cc1OC         pIC50  5.52 to 6.29
 2  N#Cc1cnn2c(Nc3ccc(Br)cc3)c(-c3ccc(N4CCOCC4)cc3)[nH]c12         pIC50  5.52 to 6.29
 3  COc1cc(-c2[nH]c3c(C#N)cnn3c2Nc2ccc(CN)cc2)cc(OC)c1OC         pIC50  4.60 to 5.52
 4  COc1cc(Nc2c(-c3ccc(OC)c(OC4CCCC4)c3)[nH]c3c(C#N)cnn23)ccc1F         pIC50  5.52 to 6.29
 5  COc1cc(-c2[nH]c3c(C#N)cnn3c2Nc2ccc(F)c(C(F)(F)F)c2)cc(OC)c1OC         pIC50  5.52 to 6.29
 6  COc1ccc(Nc2c(-c3ccc(Oc4ccccc4)cc3)[nH]c3c(C#N)cnn23)cc1OC         pIC50  4.60 to 5.52
 7  COc1cc(-c2[nH]c3c(C#N)cnn3c2Nc2ccc(OC(F)(F)F)cc2)cc(OC)c1OC         pIC50  5.52 to 6.29
 8  COCCOc1ccc(-c2[nH]c3c(C#N)cnn3c2Nc2ccc(OC)c(OC)c2)cc1OC         pIC50        > 6.30
 9  COc1cc(-c2[nH]c3c(C#N)cnn3c2Nc2ccc(CNC(=O)c3cccnc3OC)cc2)cc(OC)c1OC         pIC50        > 6.30
10  COc1cc(-c2[nH]c3c(C#N)cnn3c2N)cc(OC)c1OC         pIC50  4.60 to 5.52
